Value source: the supplement of paper PMC10307832

# Test system: A549
# Test Description: relative viability (nuclei count vs DMSO), 5 days (fraction); higher = more cells survive
# Settings: first compound 2 µM
Strictly below 0.8 in relative viability: True. Otherwise: False.

CN1CCN(CCOc2cc(OC3CCOCC3)c3c(Nc4c(Cl)ccc5c4OCO5)ncnc3c2)CC1 [Saracatinib] + N=C(N)NC(=N)NCCc1ccccc1 [Phenformin] (partner 250 µM) ... True
Cc1csc(=NC2CCCCC2)n1/N=C/c1ccc(O)c(O)c1O [MIM1] + CS(=O)(=O)N1CCN(Cc2cc3nc(-c4cccc5[nH]ncc45)nc(N4CCOCC4)c3s2)CC1 [Pictilisib] (partner 1 µM) ... True
Cc1csc(=NC2CCCCC2)n1/N=C/c1ccc(O)c(O)c1O [MIM1] + C[C@@H](Oc1cc(-c2cnn(C3CCNCC3)c2)cnc1N)c1c(Cl)ccc(F)c1Cl [Crizotinib] (partner 1 µM) ... True

Please find the next molecule below.
Challenge: Just wondering, is relative viability of Cc1csc(=NC2CCCCC2)n1/N=C/c1ccc(O)c(O)c1O [MIM1] + CS(=O)(=O)CCNCc1ccc(-c2ccc3ncnc(Nc4ccc(OCc5cccc(F)c5)c(Cl)c4)c3c2)o1 [Lapatinib] (partner 2 µM) below 0.8?
Response given: False
